system: Escherichia coli; experiment: Antimicrobial activity against Escherichia coli ATCC […] after 18 to 24 hrs by alamar blue assay; type: functional; settings: Escherichia coli; read-out: MIC
Each item that follows carries a reported MIC.
Your answer is read as µg/mL, so omit the unit and give the number.

INSERT INTO assay_data (molecule, numeric_result) VALUES
  ('O=C(Nc1ccc(Cl)c(Cl)c1)c1cc(Cl)cc(Cl)c1O [3,3'',4'',5-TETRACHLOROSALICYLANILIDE]', 8),
  ('O=C(Nc1ccc2oc(-c3ccncc3)nc2c1)c1ccc([N+](=O)[O-])o1', 256),
  ('COC(=O)c1c(NC(=O)c2ccc([N+](=O)[O-])o2)sc2c1CC(C)(C)NC2(C)C', 256),
  ('O=C(Nc1ccc(Cl)c(C(=O)c2ccc(Cl)cc2)c1)c1cc(Cl)ccc1O', 8),
  ('Cc1ccc(C(C)C)c(Oc2ccc(Cl)cc2NC(=O)c2cc(Cl)cc(Cl)c2O)c1', 8);

Query block: Could you share which MIC value was measured for O=C(Nc1cc(Cl)cc(C(=O)c2ccc(Cl)cc2)c1Cl)c1cc(Cl)cc(Br)c1O ?
Result block: 8

Query block: Would you mind doing CCOC(=O)c1c(NC(=O)c2ccc([N+](=O)[O-])o2)sc2c1CCN(C(C)=O)C2 as well?
Result block: 256

Query block: Would you mind doing O=C(Nc1ccc(Sc2nc3ccccc3s2)c(Cl)c1)c1cc(Cl)cc(Cl)c1O as well?
Result block: 8

Query block: Would you mind doing O=C(Nc1cc(Cl)cc(C(=O)c2ccccc2)c1Cl)c1cc(Br)cc(Br)c1O as well?
Result block: 8

Query block: Would you mind doing O=C(Nc1cc(Cl)ccc1Cl)c1cc(Cl)cc(Cl)c1O as well?
Result block: 8

---

system: Staphylococcus aureus; experiment: Antimicrobial activity against methicillin-resistant Staphylococcus aureus isolate NTUH4722 after 18 to 24 hrs by alamar blue assay; type: functional
Decision: MIC beneath 2 µg/mL gives label 1; MIC meeting or exceeding 2 µg/mL gives label 0.

INSERT INTO results (molecule, label) VALUES
  ('CCCc1cc(O)nc(N2NC(C)=CC2NC(=O)c2cccs2)n1 (stereo not given)', 'label 1'),
  ('O=C(Nc1nnc(-c2ccc(Br)cc2)o1)c1cccc(F)c1', 'label 1'),
  ('CCC1Sc2ccc(S(=O)(=O)Nc3ccc(C)cc3C)cc2NC1=O (stereo not given)', 'label 0'),
  ('O=C(Nc1nnc(-c2ccc(Cl)cc2)o1)c1ccc(C(F)(F)F)cc1', 'label 1'),
  ('O=C(Nc1nnc(-c2ccc(Br)cc2)o1)c1cccc(C(F)(F)F)c1', 'label 1');

Query block: # strict comparison: is reported MIC < 2 µg/mL? input = O=C(Nc1cc(Cl)ccc1Oc1cccc2c(Br)cccc12)c1cc(Cl)cc(Br)c1O
Result block: label 1

Query block: Would you mind doing Cc1ccc(-c2nnc(NC(=O)c3nc4ccccc4s3)o2)c(C)c1 as well?
Result block: label 1

Query block: Would you mind doing O=C(Nc1cc(Cl)ccc1Oc1ccc(Br)c2ccccc12)c1cc(Cl)cc(I)c1O as well?
Result block: label 1

Query block: Would you mind doing CCCCN(C)S(=O)(=O)c1ccc(C(=O)Nc2nnc(-c3cccc(OC)c3)o2)cc1 as well?
Result block: label 0

---

tested on: Staphylococcus aureus; assay: Antimicrobial activity against methicillin-resistant Staphylococcus aureus isolate NTUH4722 after 18 to 24 hrs by alamar blue assay; type: functional
Each item that follows carries a reported MIC.
Your answer is read as µg/mL, so omit the unit and give the number.

Before answering, review these 3 worked examples.
INSERT INTO results (molecule, numeric_result) VALUES
  ('O=C(Nc1cccc2c1C(=O)NC2=O)c1ccc([N+](=O)[O-])o1', 2),
  ('Cc1c(CC(=O)NCCCC(=O)O)c(=O)oc2c(C)c3occ(-c4ccc(Cl)cc4)c3cc12', 2.5),
  ('Cc1cccc(NS(=O)(=O)c2ccc3c(c2)NC(=O)C(C)S3)c1C (stereo not given)', 16);

Query block: Could you share which MIC value was measured for CCOc1ccccc1N(C)S(=O)(=O)c1ccc2c(c1)NC(=O)C(C)S2 (stereo not given) ?
Result block: 8

---

test system: Staphylococcus aureus; experiment: Antimicrobial activity against methicillin-resistant Staphylococcus aureus ATCC 33592 after 18 to 24 hrs by alamar blue assay; format: functional; details: Staphylococcus aureus, ATCC 33592; read-out: MIC
Measurement type: MIC (mg/L)
Your answer is read as mg/L, so omit the unit and give the number.

INSERT INTO results (molecule, numeric_result) VALUES
  ('O=C(Nc1cc(Cl)cc(C(=O)c2ccccc2)c1Cl)c1cc(Br)cc(Br)c1O', 8),
  ('CC(C)N1C(=O)/C(=C/c2ccc([N+](=O)[O-])o2)SC1=S', 1),
  ('COc1cccc(-c2coc3c(C)c4oc(=O)c(CCC(=O)O)c(C)c4cc23)c1', 2.5),
  ('O=C(Nc1ccc(Oc2cc3ccccc3cc2Cl)c(Cl)c1)c1cc(Br)cc(Br)c1O', 4),
  ('Cc1ccc(-c2nnc(NC(=O)c3nc4ccccc4s3)o2)c(C)c1', 0.5),
  ('CCOC(=O)c1c(NC(=O)c2ccc([N+](=O)[O-])o2)sc2c1CCN(C(C)=O)C2', 4),
  ('Cc1ccc(C(C)C)cc1Oc1ccc(Cl)cc1NC(=O)c1cc(Cl)ccc1O', 0.5),
  ('O=C(Nc1nnc(-c2cccc(Br)c2)o1)c1ccc(F)cc1', 1.5);

Query block: Could you share which MIC value was measured for CCOc1ccccc1N(C)S(=O)(=O)c1ccc2c(c1)NC(=O)C(C)S2 (stereo not given) ?
Result block: 8

Query block: Would you mind doing O=C(Nc1ccc(Oc2ccc3ccccc3c2Cl)c(Cl)c1)c1cc(I)cc(I)c1O as well?
Result block: 8

---

Each item that follows carries a reported MIC.
system: Escherichia coli; test: Antimicrobial activity against Escherichia coli ATCC […] after 18 to 24 hrs by alamar blue assay; format: functional; conditions: Escherichia coli; read-out: MIC

INSERT INTO assay_data (compound, result) VALUES
  ('CCC1Sc2ccc(S(=O)(=O)Nc3c(C)cc(C)cc3C)cc2NC1=O (stereo not given)', '> 256 µg/mL'),
  ('CCc1ccccc1NS(=O)(=O)c1ccc2c(c1)NCC(C)C(=O)S2 (stereo not given)', '> 256 µg/mL'),
  ('CC1=CC(NC(=O)C(C)Oc2ccccc2)N(c2nc(C)c(C)c(O)n2)N1 (stereo not given)', '> 256 µg/mL'),
  ('O=C1c2cc([N+](=O)[O-])cc3cc([N+](=O)[O-])cc(c23)C(=O)N1c1ccc(O)cc1', '> 256 µg/mL');

Now for another entry.
Query block: Notebook: pull reported MIC for Escherichia coli, entry NC(=O)c1ccsc1NC(=O)c1ccc([N+](=O)[O-])o1
Result block: 256 µg/mL

---

tested on: Escherichia coli; test: Antimicrobial activity against Escherichia coli ATCC […] after 18 to 24 hrs by alamar blue assay; assay type: functional; conditions: Escherichia coli; read-out: MIC
Each item that follows carries a reported MIC.
Your answer is read as µg/mL, so omit the unit and give the number.

INSERT INTO measurements (mol, target_system, measurement_type, numeric_result) VALUES
  ('O=C(Nc1ccc(Oc2ccc3ccccc3c2Cl)c(Cl)c1)c1cc(Br)cc(Br)c1O', 'Escherichia coli', 'MIC', 8);

Query block: Notebook: pull reported MIC for Escherichia coli, entry O=C(Nc1ccc(Sc2nc3ccccc3s2)c(Cl)c1)c1cc(Br)cc(Br)c1O
Result block: 8

---

test system: Staphylococcus aureus; assay: Antimicrobial activity against methicillin-resistant Staphylococcus aureus ATCC 33592 after 18 to 24 hrs by alamar blue assay; format: functional; details: Staphylococcus aureus, ATCC 33592; read-out: MIC
Measurement type: MIC (µg/mL)
Your answer is read as µg/mL, so omit the unit and give the number.

Query block: Could you share which MIC value was measured for O=C(Nc1cc(Cl)ccc1Cl)c1cc(Cl)cc(Cl)c1O ?
Result block: 0.5

---

Each item that follows carries a reported MIC.
system: Escherichia coli; test: Antimicrobial activity against Escherichia coli ATCC […] after 18 to 24 hrs by alamar blue assay; format: functional; conditions: Escherichia coli; read-out: MIC
Your answer is read as mg/L, so omit the unit and give the number.

Before answering, review these 4 worked examples.
INSERT INTO results (mol, measurement_type, units_symbol, numeric_result) VALUES
  ('O=C(Nc1ccc(Cl)c(S(=O)(=O)Nc2cccc(Cl)c2)c1)c1ccc([N+](=O)[O-])o1', 'MIC', 'mg/L', 256),
  ('O=C(Nc1ccc(Cl)c(Cl)c1)c1ccc([N+](=O)[O-])o1', 'MIC', 'mg/L', 256),
  ('O=C(Nc1cccc(-c2nc3ncccc3o2)c1)c1ccc([N+](=O)[O-])o1', 'MIC', 'mg/L', 256),
  ('O=C(Nc1cc(Cl)cc(C(=O)c2ccc(Cl)cc2)c1Cl)c1cc(Br)cc(Br)c1O', 'MIC', 'mg/L', 8);

Query block: Could you share which MIC value was measured for CCN(CC)c1cc(C)c2cc(NC(=O)c3ccc([N+](=O)[O-])o3)ccc2n1 ?
Result block: 256

Query block: Would you mind doing O=C(Nc1ccc(Oc2cc3ccccc3cc2Cl)c(Cl)c1)c1cc(Br)cc(Br)c1O as well?
Result block: 8

Query block: Would you mind doing O=C(Nc1ccc(Oc2cc3ccccc3cc2Cl)c(Cl)c1)c1cc(Cl)cc(I)c1O as well?
Result block: 8
